target-entity: Phospholipase A2, membrane associated (Homo sapiens, UniProt P14555)
Sequence (P14555 whole entry): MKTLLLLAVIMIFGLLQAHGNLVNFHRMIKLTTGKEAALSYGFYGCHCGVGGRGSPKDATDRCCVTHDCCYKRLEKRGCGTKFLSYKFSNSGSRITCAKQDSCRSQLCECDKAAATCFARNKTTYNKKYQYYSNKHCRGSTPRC
method-description: In vitro inhibition of human recombinant secretory Phospholipase A2 (group II).
measurement-label: IC50

Req: Param item = Cc1c(O)c(Cc2c(C)c(C(=O)Oc3c(C)c(C)c(C(=O)Oc4c(C)c(C)c(C(=O)O)c(O)c4C)c(O)c3C)c(O)c(C)c2O)c(C)c(C(=O)Oc2c(C)c(C)c(C(=O)Oc3c(C)c(C)c(C(=O)O)c(O)c3C)c(O)c2C)c1O ; retrieve measured IC50.
Resp: 2.4 µM

Further cases:
Req: Param item = COc1cc(OC)c(C(=O)Oc2c(C)c(C)c(C(=O)Oc3c(C)c(C)c(C(=O)O)c(OC)c3C)c(OC)c2C)cc1Oc1cc(C)c(OC)c(C(=O)Oc2c(C)c(C)c(C(=O)Oc3c(C)c(C)c(C(=O)O)c(OC)c3C)c(OC)c2C)c1 ; retrieve measured IC50.
Resp: 0.24 µM
